# Tested on: FGFR4 (h) (Homo sapiens, UniProt P22455)
# Sequence (P22455 22-802): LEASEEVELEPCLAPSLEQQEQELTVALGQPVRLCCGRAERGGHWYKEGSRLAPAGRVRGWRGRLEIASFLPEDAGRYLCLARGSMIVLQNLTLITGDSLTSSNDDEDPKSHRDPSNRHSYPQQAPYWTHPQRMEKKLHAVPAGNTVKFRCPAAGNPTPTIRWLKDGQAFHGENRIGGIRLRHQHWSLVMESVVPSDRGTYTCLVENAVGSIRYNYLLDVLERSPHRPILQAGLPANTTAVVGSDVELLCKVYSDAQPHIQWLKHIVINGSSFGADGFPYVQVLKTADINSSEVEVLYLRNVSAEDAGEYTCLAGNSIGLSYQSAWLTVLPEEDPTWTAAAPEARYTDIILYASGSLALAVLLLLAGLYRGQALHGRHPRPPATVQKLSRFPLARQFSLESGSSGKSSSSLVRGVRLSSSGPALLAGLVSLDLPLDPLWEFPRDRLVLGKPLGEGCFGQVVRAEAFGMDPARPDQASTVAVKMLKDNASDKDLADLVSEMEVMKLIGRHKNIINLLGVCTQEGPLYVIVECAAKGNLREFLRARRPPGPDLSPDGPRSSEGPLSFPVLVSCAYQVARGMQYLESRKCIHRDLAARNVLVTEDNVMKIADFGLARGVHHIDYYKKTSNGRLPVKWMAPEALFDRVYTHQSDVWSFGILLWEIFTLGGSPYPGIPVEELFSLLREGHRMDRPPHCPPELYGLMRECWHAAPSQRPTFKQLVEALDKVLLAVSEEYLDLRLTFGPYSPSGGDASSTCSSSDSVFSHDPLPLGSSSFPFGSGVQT
# Protocol: FGFR4 (enzymatic assay), TR-FRET
# Assay type: biochemical
# Details: read-out: FGFR 4 pIC50 (converted)
Measured attribute: IC50 (µM)

1: COc1cc(OC)cc(N(CCO)c2ccc3ncc(-n4cnc(CO)c4)nc3c2)c1
2: COc1cc(OC)cc(N(CC2CC2)c2ccc3ncc(-c4cn(CCO)nn4)nc3c2)c1
Please compare: 1 and 2 . Report which one has the smaller IC50 value. API: response body contains the label of the selected item.
1

###

# Tested on: FGFR4 (h) (Homo sapiens)
# Protocol: FGFR4 (enzymatic assay), TR-FRET
# Assay type: biochemical
# Details: read-out: FGFR 4 pIC50 (converted)
Measured attribute: IC50 (nM)

Please review the following examples before continuing.
COc1cc(OC)cc(N(CCNC(C)C)c2ccc3ncc(-c4ccn(C)c4)nc3c2)c1    3.47
COCC(O)CN(c1cc(OC)cc(OC)c1)c1ccc2ncc(-c3cccnc3)nc2c1 (single isomer, unassigned) [Compound 47]    115
COc1cc(OC)cc(N(CCO)c2ccc3ncc(C(=O)Nc4cnn(C)c4)nc3c2)c1    309
COc1cc(OC)cc(N(CCCNCC(F)(F)F)c2ccc3ncc(-c4ccc(N(C)C(=O)OC(C)(C)C)nc4)nc3c2)c1    912
COc1cc(OC)cc(N(CCN2CCNCC2)c2ccc3ncc(-c4ccc(N)nc4)nc3c2)c1    64.6
COc1cc(OC)cc(N(CCO)c2ccc3ncc(-c4ccc(N5CCNCC5)cc4)nc3c2)c1    7.24

I: CNc1ccc(-c2cnc3ccc(N(CCCO)c4cc(OC)cc(OC)c4)cc3n2)cn1
II: COc1cc(OC)cc(N(CCO)c2ccc3ncc(-c4ccccc4CCO)nc3c2)c1
III: CNC(=O)c1cc(-c2cnc3ccc(N(CCN4CCCC4CO)c4cc(OC)cc(OC)c4)cc3n2)ccn1 (stereo not shown)
IV: COc1cc(OC)cc(N(CC2CC2)c2ccc3ncc(N4CCOCC4)nc3c2)c1
V: COc1cc(OC)cc(N(CC#Cc2ncccc2OC)c2ccc3ncc(-c4cccnc4)nc3c2)c1
Number of compounds to sort: 5. Sort criterion: IC50, ascending. Answer format: the labels, ordered as requested.
I, III, V, II, IV
(I: 17.8 nM, III: 251 nM, V: 427 nM, II: 891 nM, IV: 2290 nM)

P: COc1cc(OC)cc(N(CC2CC2)c2ccc3ncc(-c4nccs4)nc3c2)c1
Q: COc1cc(OC)cc(N(CC2CC2)c2ccc3ncc(-c4cn(CCN5CCOCC5)nn4)nc3c2)c1
R: COc1cc(OC)cc(N(CCN)c2ccc3ncc(-c4ccn(C)c4)nc3c2)c1
S: COc1cc(OC)cc(N(CCN2CCOCC2)c2ccc3ncc(-c4ccc(NC(=O)N5CCOCC5)nc4)nc3c2)c1
T: COc1cc(OC)cc(N(CCCNC(C)C)c2ccc3ncc(-c4ccnc(NC(=O)NC(C)C)c4)nc3c2)c1
Sort by IC50, descending. A complete answer lists every label in the requested sequence.
P, Q, S, T, R

P: COc1cc(OC)cc(N(CCCO)c2ccc3ncc(-c4cccnc4)nc3c2)c1
Q: COc1cc(OC)cc(N(CCNC(C)C)c2ccc3ncc(C(=O)NCCCN4CCN(C)CC4)nc3c2)c1
R: COc1cc(OC)cc(N(CC2CO2)c2ccc3ncc(-c4ccc(N)nc4)nc3c2)c1 (stereo not shown)
S: COc1cc(OC)cc(N(CCNC(C)C)c2ccc3ncc(-c4ccc(N5CCOCC5)nc4)nc3c2)c1
T: COc1cc(OC)cc(N(CCN2CCN(C(C)=O)CC2)c2ccc3ncc(-c4ccc(N)nc4)nc3c2)c1
Please give the order of these compounds when sorted by IC50, largest value leading. Returns: the labels listed in the requested order.
Q, T, R, P, S
(Q: 490 nM, T: 282 nM, R: 145 nM, P: 58.9 nM, S: 8.32 nM)

1: COc1cc(OC)cc(N(CC2CC2)c2ccc3ncc(-c4ocnc4C)nc3c2)c1
2: COc1cc(OC)cc(N(CCNC(C)C)c2ccc3ncc(-n4cnc(CO)c4)nc3c2)c1
Of the pair 1 and 2 , name the member with the lesser recorded IC50. In your reply, give the label of the chosen option.
2

###

# Tested on: FGFR1 (h) (Homo sapiens)
# Protocol: FGFR1 (enzymatic assay), TR-FRET
# Type: biochemical
# Details: read-out: FGFR 1 pIC50 (converted)
Measured attribute: IC50 (nM)

Worked cases, IC50 given:
COc1cc(OC)cc(N(CC2CC2)c2ccc3ncc(C#Cc4cncn4C)nc3c2)c1    28.2
COc1cc(OC)cc(N(CCCO)c2ccc3ncc(-c4ccc(N(C)C(=O)OC(C)(C)C)nc4)nc3c2)c1    34.7
COc1cc(OC)cc(N(CC2CC2)c2ccc3ncc(N4CCOCC4)nc3c2)c1    537
COc1cc(OC)cc(N(CC2CC2)c2ccc3ncc(-n4ccnc4C)nc3c2)c1    417

a: COc1cc(OC)cc(N(CCCNCC(F)(F)F)c2ccc3ncc(-c4ccc(N(C)C(=O)OC(C)(C)C)nc4)nc3c2)c1
b: COc1cc(OC)cc(N(CCO)c2ccc3ncc(C(=O)Nc4cnn(C)c4)nc3c2)c1
c: COc1cc(OC)cc(N(CCO)c2ccc3ncc(-c4ccncc4)nc3c2)c1
// sort entries: IC50, high to low Sort and list the labels as requested.
a, b, c

###

# Tested on: Ba/F3-FGFR3-transfected cells (Homo sapiens, UniProt P22607)
# Sequence (P22607 whole entry, change not shown): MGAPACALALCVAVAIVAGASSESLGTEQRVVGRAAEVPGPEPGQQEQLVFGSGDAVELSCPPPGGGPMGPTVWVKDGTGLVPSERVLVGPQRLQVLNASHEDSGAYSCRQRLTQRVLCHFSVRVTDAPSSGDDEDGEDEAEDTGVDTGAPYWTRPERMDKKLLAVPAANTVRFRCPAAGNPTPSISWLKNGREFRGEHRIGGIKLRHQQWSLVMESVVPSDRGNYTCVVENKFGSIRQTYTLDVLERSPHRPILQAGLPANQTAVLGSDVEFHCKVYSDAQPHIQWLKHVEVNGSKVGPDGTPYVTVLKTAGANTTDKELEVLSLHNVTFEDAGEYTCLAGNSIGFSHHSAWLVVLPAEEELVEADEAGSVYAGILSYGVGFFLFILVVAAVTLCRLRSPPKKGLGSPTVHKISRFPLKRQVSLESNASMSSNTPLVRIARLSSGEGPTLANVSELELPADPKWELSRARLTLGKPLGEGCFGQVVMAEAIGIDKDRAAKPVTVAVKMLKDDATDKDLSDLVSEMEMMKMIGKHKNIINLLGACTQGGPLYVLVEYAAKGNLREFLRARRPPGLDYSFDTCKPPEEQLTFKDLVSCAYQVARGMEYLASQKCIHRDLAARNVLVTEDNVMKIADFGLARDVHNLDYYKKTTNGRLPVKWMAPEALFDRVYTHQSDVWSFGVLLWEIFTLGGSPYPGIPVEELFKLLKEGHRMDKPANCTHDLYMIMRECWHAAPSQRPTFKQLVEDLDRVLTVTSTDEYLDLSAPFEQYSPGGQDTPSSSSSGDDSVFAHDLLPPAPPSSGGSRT
# Protocol: Ba/F3-FGFR3 (minus IL3) cellular proliferation assay, Alamar Blue
# Assay type: cell-based
# Details: minus IL3, 384 well
Measured attribute: BAF3-FGFR 3 (MIN IL3) 384 well pIC50

COc1cc(OC)cc(N(CCCO)c2ccc3ncc(-c4cnc(N5CCN(C)CC5)c(C)c4)nc3c2)c1    6.3
COc1cc(OC)cc(N(CC#Cc2ncccc2OC)c2ccc3ncc(-c4cccnc4)nc3c2)c1    7.1
CNC(=O)c1cc(-c2cnc3ccc(N(CCCNCC(F)(F)F)c4cc(OC)cc(OC)c4)cc3n2)ccn1    5.49
CNc1ccc(-c2cnc3ccc(N(CCCNCC(F)(F)F)c4cc(OC)cc(OC)c4)cc3n2)cn1    5.89
COc1cc(OC)cc(N(CCCNC(C)C)c2ccc3ncc(-c4ccnc(NC(=O)NC(C)C)c4)nc3c2)c1    6.08
COc1cc(OC)cc(N(CCCO)c2ccc3ncc(-c4ccc(C)nc4)nc3c2)c1    6.29
COc1cc(OC)cc(N(CCO)c2ccc3ncc(-c4ccnc(C(=O)NCCCN)c4)nc3c2)c1    5.57
COc1cc(OC)cc(N(CCO)c2ccc3ncc(-c4ccccc4CCO)nc3c2)c1    5.11
COc1cc(OC)cc(N(CCCO)c2ccc3ncc(-c4ccc(N5CCNCC5)nc4)nc3c2)c1    6.87
COc1cc(OC)cc(N(CCCNC(C)C)c2ccc3ncc(-c4ccnc(N)c4)nc3c2)c1    6.4
COc1cc(OC)cc(N(CCNC(C)C)c2ccc3ncc(-c4cccnc4)nc3c2)c1    7.53
COc1cc(OC)cc(N(CCNC(C)C)c2ccc3ncc(-n4cnc(CO)c4)nc3c2)c1    7.12
COc1cc(OC)cc(N(CC#Cc2ncccn2)c2ccc3ncc(-c4cccnc4)nc3c2)c1    7.13

###

# Tested on: UniProtKB P35968
# Sequence (P35968 20-1356): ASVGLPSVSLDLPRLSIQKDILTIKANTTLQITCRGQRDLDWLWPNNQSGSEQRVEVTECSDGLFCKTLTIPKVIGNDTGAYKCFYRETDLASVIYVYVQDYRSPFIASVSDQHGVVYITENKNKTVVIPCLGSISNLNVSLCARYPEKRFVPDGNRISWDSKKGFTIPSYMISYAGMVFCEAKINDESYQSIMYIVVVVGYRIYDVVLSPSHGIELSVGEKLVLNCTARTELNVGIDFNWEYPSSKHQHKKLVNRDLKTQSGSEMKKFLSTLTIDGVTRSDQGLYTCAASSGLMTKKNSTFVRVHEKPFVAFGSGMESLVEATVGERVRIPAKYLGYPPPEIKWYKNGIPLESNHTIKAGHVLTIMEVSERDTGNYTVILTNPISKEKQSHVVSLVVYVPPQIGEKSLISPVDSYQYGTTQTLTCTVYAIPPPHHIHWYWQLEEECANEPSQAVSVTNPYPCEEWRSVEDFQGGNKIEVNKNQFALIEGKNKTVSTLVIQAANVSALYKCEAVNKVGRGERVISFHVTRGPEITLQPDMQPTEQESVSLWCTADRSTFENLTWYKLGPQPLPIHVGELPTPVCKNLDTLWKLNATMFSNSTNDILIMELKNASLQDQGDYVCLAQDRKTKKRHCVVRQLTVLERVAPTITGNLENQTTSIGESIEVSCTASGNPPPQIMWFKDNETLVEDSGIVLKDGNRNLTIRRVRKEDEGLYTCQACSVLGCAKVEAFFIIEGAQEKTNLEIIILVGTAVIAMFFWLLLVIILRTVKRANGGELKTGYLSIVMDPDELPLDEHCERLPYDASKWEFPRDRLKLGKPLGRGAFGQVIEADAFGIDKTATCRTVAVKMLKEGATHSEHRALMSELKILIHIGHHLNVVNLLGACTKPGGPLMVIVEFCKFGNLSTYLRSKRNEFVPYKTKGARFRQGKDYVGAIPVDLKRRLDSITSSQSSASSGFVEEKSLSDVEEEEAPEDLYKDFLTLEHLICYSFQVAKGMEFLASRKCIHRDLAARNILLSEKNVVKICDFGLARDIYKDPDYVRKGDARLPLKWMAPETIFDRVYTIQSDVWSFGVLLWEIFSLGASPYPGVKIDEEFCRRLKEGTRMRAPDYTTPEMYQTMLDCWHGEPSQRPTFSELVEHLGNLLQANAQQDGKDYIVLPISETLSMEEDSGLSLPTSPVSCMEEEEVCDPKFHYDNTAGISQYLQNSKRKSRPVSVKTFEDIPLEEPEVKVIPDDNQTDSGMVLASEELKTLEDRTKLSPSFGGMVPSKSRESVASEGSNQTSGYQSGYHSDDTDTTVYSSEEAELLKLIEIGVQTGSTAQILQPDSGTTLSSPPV
pIC50: −log10 of the molar value.
Measured attribute: pIC50

COc1cc(OC)cc(N(CCO)c2ccc3ncc(-c4ccncc4)nc3c2)c1    6.57
CNC(=O)c1cc(-c2cnc3ccc(N(CCN4CCCC4CO)c4cc(OC)cc(OC)c4)cc3n2)ccn1 (stereo not drawn)    6.70
COc1cc(OC)cc(N(CCNC(C)C)c2ccc3ncc(-c4ccncc4)nc3c2)c1    7.02
COc1cc(OC)cc(N(CCCNC(C)C)c2ccc3ncc(-c4ccnc(NC(=O)OC(C)(C)C)c4)nc3c2)c1    6.56
COc1cc(OC)cc(N(CCNC(C)C)c2ccc3ncc(-c4ccn(C)c4)nc3c2)c1    7.70
COc1cc(OC)cc(N(CC2CC2)c2ccc3ncc(-c4ccncc4)nc3c2)c1    5.72
COc1cc(OC)cc(N(CCN)c2ccc3ncc(-c4ccn(C)c4)nc3c2)c1    7.65

A: COc1cc(OC)cc(N(CC(O)CO)c2ccc3ncc(-c4ccc(N)nc4)nc3c2)c1 (stereo not drawn)
B: COc1cc(OC)cc(N(CC2CC2)c2ccc3ncc(-c4cn(C)nn4)nc3c2)c1
Between the entries labelled A and B , which has a larger pIC50 value on record? Output the label that corresponds to your choice.
A
(A: 6.51, B: 6.09)

###

# Tested on: FGFR1 (h) (Homo sapiens, UniProt P11362)
# Sequence (P11362 22-822): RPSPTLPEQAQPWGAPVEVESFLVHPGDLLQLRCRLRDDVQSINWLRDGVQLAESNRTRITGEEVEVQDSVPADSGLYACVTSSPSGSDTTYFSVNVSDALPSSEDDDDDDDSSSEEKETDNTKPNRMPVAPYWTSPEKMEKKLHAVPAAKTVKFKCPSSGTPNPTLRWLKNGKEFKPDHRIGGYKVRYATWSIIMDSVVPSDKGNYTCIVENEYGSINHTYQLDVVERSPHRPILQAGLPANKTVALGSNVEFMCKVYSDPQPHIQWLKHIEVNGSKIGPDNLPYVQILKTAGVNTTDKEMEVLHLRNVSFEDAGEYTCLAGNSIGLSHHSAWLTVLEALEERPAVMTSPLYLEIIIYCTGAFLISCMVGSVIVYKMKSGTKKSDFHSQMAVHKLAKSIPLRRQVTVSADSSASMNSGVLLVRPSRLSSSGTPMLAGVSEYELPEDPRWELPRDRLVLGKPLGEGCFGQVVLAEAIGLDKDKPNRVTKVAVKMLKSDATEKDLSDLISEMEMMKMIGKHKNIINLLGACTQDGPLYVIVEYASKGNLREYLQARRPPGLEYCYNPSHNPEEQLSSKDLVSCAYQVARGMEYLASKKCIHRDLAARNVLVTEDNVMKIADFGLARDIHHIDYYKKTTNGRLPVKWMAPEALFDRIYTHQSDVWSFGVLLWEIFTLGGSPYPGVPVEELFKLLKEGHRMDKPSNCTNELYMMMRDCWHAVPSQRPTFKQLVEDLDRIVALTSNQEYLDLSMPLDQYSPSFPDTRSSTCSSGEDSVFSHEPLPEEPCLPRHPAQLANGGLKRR
# Protocol: FGFR1 (enzymatic assay), TR-FRET
# Assay type: biochemical
# Details: read-out: FGFR 1 pIC50 (converted)
Measured attribute: IC50 (nM)

1: COc1cc(OC)cc(N(CCN2CCNCC2)c2ccc3ncc(-c4ccc(N)nc4)nc3c2)c1
2: COc1cc(OC)cc(N(CCNC(C)C)c2ccc3ncc(-c4ccc(N)nc4)nc3c2)c1
3: COc1cc(OC)cc(N(CCCNCC(F)(F)F)c2ccc3ncc(C(=O)NCCN4CCOCC4)nc3c2)c1
Put the items in order so that reported IC50 rises from first to last. Labels, requested order.
2, 1, 3
(2: 1.23 nM, 1: 3.63 nM, 3: 398 nM)

I: COc1cc(OC)cc(N(CCCNC(C)C)c2ccc3ncc(-c4ccnc(N)c4)nc3c2)c1
II: COc1cc(OC)cc(N(CCCO)c2ccc3ncc(-c4ccnc(C(=O)NCCCN)c4)nc3c2)c1
// compare measured IC50, left I , right II , return larger Pick one and reply with its label.
II
